assayed-system: Nuclear receptor ROR-beta (Homo sapiens)
Sequence (Q92753 whole entry): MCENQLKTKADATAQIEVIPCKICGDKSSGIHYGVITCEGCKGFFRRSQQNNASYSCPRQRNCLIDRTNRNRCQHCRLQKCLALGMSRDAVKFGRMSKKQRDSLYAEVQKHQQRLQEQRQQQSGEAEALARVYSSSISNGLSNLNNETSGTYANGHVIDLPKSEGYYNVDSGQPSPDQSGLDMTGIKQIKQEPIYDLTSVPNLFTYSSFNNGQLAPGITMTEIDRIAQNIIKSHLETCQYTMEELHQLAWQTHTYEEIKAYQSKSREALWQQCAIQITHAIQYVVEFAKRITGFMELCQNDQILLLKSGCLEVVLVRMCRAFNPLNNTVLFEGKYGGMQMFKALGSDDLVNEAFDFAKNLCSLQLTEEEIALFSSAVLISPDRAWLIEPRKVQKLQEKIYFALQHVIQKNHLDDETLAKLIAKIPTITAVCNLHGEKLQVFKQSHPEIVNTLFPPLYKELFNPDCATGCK
test-description: Binding affinity to recombinant human RORbeta LBD (201 to 452 residues) expressed in Escherichia coli BL21 (DE3) GOLD by 1,8-ANS dye-based thermofluor assay
pKd: −log10 of the molar value.

mol | pKd
CC(C)(C)NS(=O)(=O)c1ccc(-c2sc(C(=O)N3CC4(C3)CS(=O)(=O)C4)nc2CC2CCCCC2)c2ccccc12 | < 4.07
C[C@H](NS(=O)(=O)c1ccc(-c2sc(C(=O)NC3CCS(=O)(=O)CC3)nc2CC2CC2)c2ccccc12)C(F)(F)F | < 4.16
C[C@H](NS(=O)(=O)c1ccc(-c2sc(C(=O)NCC(C)(C)O)nc2-c2cccc(F)c2)c(Cl)c1Cl)C(F)(F)F | < 4.11
CC(C)(C)NS(=O)(=O)c1ccc(-c2sc(C(=O)N[C@H]3C[C@H](C(=O)O)C3)nc2CC2CCCCC2)c2ccccc12 | 6.13
CC(C)(C)NS(=O)(=O)c1ccc(-c2sc(C(=O)N[C@H]3C[C@H](C(=O)O)C3)nc2CC2CCCCC2)c(Cl)c1 | < 4.12
C[C@H](NS(=O)(=O)c1ccc(-c2sc(C(=O)NCC(C)(C)O)nc2CC2CCC2)c(C(F)F)c1)C(F)(F)F | < 4.14
C[C@H](NS(=O)(=O)c1ccc(-c2sc(C(=O)NCC(C)(C)O)nc2C2CCCCC2)c(Cl)c1Cl)C(F)(F)F | < 4.12
